B1: library; a variant is named by its letters at N, in order (parent)
chain: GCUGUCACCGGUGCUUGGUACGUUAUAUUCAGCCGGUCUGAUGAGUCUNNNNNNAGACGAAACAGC

Variants of: B1
Assay: normalized RNA/DNA level with ligand (relative to sTRSVctl = 100) (log10 (% of sTRSVctl)); HEK293T overexpressing SLC46A1; ligand concentration (+) RNA-Seq: 6 mM; higher = less ribozyme self-cleavage, higher mRNA level
Conditions: with (6R,S)-folinic acid; ligand present: yes
MEASURED_ENDPOINT: normalized RNA/DNA level with ligand (log10)
Give bare numbers.

Look over these answered cases.
| MUTANT | TEST_RESULT |
| --- | --- |
| CGAGCG | 2 |
| AGCACG | 2.02 |
| UAGGCC | 2.04 |
| GUUCAG | 2 |
| AUCUCG | 2.04 |
| GCAAGA | 2.04 |

Give one value of normalized RNA/DNA level with ligand (log10) per listed variant.
1. GGGCUG
2. CGCCGC
3. GGUGCC

Result:
1. 2.03
2. 2.03
3. 2.03

The measured values listed here are drawn from the supplement of paper PMC6757056.
